target: RUNX1 (UniProt Q01196); test: RUNX1 binding intensity (PBM fluorescence), RUNX1 alone (arbitrary fluorescence units); higher = stronger binding; conditions: RUNX1 concentration 2 nM; ETS1 concentration 0 nM;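 note: Full-length recombinant human RUNX1 bound to double-stranded 36-bp genomic probes on a high-density microarray, scored as Alexa488 fluorescence per spot via anti-RUNX1 antibody, median of four replicate spots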
Sequence (Q01196 whole entry): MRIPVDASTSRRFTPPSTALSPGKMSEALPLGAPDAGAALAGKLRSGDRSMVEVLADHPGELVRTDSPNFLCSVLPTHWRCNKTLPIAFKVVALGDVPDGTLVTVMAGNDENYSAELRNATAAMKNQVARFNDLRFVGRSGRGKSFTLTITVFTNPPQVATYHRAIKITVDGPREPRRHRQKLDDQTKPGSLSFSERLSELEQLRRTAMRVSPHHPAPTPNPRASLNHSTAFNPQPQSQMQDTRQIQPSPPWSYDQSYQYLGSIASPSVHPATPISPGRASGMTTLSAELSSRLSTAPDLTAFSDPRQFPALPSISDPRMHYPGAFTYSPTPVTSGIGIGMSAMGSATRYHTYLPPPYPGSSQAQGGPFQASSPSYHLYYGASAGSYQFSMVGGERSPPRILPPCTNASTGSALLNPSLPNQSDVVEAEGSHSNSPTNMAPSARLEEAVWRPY
Decide by RUNX1 binding intensity: equal to or exceeding 1000 means 1, less means 0.

[
  {
    "residues": "GCGGGCGGAAGTGCCGAGGTTGTACCGCGGCGCTGG",
    "test.system": "RUNX1 (UniProt Q01196)",
    "class": 0
  },
  {
    "residues": "TTTATCATGAATGCAGGATGTGGGCAAACTCATGAC",
    "test.system": "RUNX1 (UniProt Q01196)",
    "class": 0
  },
  {
    "residues": "GATGAAAGAGGAAGTTCTCAAACCACCTTGCCAGTG",
    "test.system": "RUNX1 (UniProt Q01196)",
    "class": 0
  },
  {
    "residues": "GTCCCCTGAATTTTCCTGTGGTTCTTATCACCAGGT",
    "test.system": "RUNX1 (UniProt Q01196)",
    "class": 1
  },
  {
    "residues": "CCAGAATGCAGGAAGTGCTGTGGTTTGACTTTGTTT",
    "test.system": "RUNX1 (UniProt Q01196)",
    "class": 0
  },
  {
    "residues": "AGTCCACACTACAGGAAACCACAGGCCTGAGCCCCA",
    "test.system": "RUNX1 (UniProt Q01196)",
    "class": 1
  },
  {
    "residues": "CGGGGATGGGATTTCCGGTGGTTTTTCTTCACTTTC",
    "test.system": "RUNX1 (UniProt Q01196)",
    "class": 0
  },
  {
    "residues": "AGCCAACAGGAAGCTGCAGAGACTAAACCACAGCAA",
    "test.system": "RUNX1 (UniProt Q01196)",
    "class": 0
  },
  {
    "residues": "TTGAGGGGAAGGGGAGGAAGTGGTCATTGGAACTTG",
    "test.system": "RUNX1 (UniProt Q01196)",
    "class": 0
  },
  {
    "residues": "CTCTTCCGCTCAGTCATCCTCAGAGGTGGTAAGACT",
    "test.system": "RUNX1 (UniProt Q01196)",
    "class": 1
  },
  {
    "residues": "TGGCGCTTCCTGTCGCTACCGCTGCGGCCCAGGGCC",
    "test.system": "RUNX1 (UniProt Q01196)",
    "class": 0
  },
  {
    "residues": "AGCCGCCACTTCCTGTCTCTGCGGGTGCATGCTCTT",
    "test.system": "RUNX1 (UniProt Q01196)",
    "class": 0
  },
  {
    "residues": "GCACCGTCTACCCGGAAGTTGTGGGCTGGGAGGGAT",
    "test.system": "RUNX1 (UniProt Q01196)",
    "class": 0
  },
  {
    "residues": "AAAATTAAAGCAGGAAGTAATCAACCACATCAAATG",
    "test.system": "RUNX1 (UniProt Q01196)",
    "class": 0
  },
  {
    "residues": "CAGAACGGTCCCCGGAACACTGCGGTTCCCGCCTGG",
    "test.system": "RUNX1 (UniProt Q01196)",
    "class": 1
  },
  {
    "residues": "ACTCACTTCCGTTTAGCTTATCAACCACCAAGAGAC",
    "test.system": "RUNX1 (UniProt Q01196)",
    "class": 1
  },
  {
    "residues": "CATCAAGTATTTCCTCACGCAAGCAACCGCATCCAT",
    "test.system": "RUNX1 (UniProt Q01196)",
    "class": 1
  },
  {
    "residues": "ATAGACTCAGGAAGTGATTGTGGTAAGATTCTATAT",
    "test.system": "RUNX1 (UniProt Q01196)",
    "class": 0
  },
  {
    "residues": "CGGCTGTTTTCCAGGATGTTGTGGTCATGGCGGTGT",
    "test.system": "RUNX1 (UniProt Q01196)",
    "class": 1
  },
  {
    "residues": "TGACACCAGCCCTGAGGATGTGGTTCATCCTCCCAC",
    "test.system": "RUNX1 (UniProt Q01196)",
    "class": 0
  },
  {
    "residues": "GGAACAGGAAGCGGCAGAAATAGCAGCCACCGCGGC",
    "test.system": "RUNX1 (UniProt Q01196)",
    "class": 0
  },
  {
    "residues": "CCTTGCAGCAACGGATGTGGGTTTTTTTTTTTCTTT",
    "test.system": "RUNX1 (UniProt Q01196)",
    "class": 1
  },
  {
    "residues": "GAAGCCAGGAAATGGTGCGTGTGCGGGGCCGGGCGC",
    "test.system": "RUNX1 (UniProt Q01196)",
    "class": 0
  }
]
